The measured values listed here are drawn from patent EP4696714A1.

assayed_target: TF on the surface of tumor cells (MDA-MB-231, HPAF-II, HCC1806, BxPC3, HCC44, PC9, H1975 and other … (UniProt P13726 33-295, limits assumed))
procedure_details: cell-based or functional assay
Would you please tag the item Condition met when its Cell proliferation inhibition IC50, BxPC3 cells (MTS) is 5 ng/mL or above, and Condition not met when it is below?

// below: answered binders
4-C05-FC1-MMAE (4-C05-FC1 coupled to mc-vc-MMAE) (Fc fusion, mc-vc-MMAE coupled to cysteine thiols after TCEP reduction; target DAR 4; positions not given) QVQLVESGGGLVQPGGSLRLSCAASGFTLDTYAIGWIRQAPGKEREGVSCISSTDGSTYYAASVKGRFTINRDNAKNTVYLQMNSLKPEDTAVYYCAAGPGTDCPLRFDYWGQGIQVTVSSEPKSSDKTHTCPPCPAPEFEGGPSVFLFPPKPKDTLMISRTPEVTCVVVDVSHEDPEVKFNWYVDGVEVHNAKTKPREEQYNSTYRVVSVLTVLHQDWLNGKEYKCKVSNKALPASIEKTISKAKGQPREPQVYTLPPSRDELTKNQVSLTCLVKGFYPSDIAVEWESNGQPENNYKTTPPVLDSDGSFFLYSKLTVDKSRWQQGNVFSCSVMHEALHNHYTQKSLSLSPGK	Condition met
F1-A01-FC1-MMAE (F1-A01-FC1 coupled to mc-vc-MMAE) (Fc fusion, mc-vc-MMAE coupled to cysteine thiols after TCEP reduction; target DAR 4 (about 91% DAR4 by HIC); positions not given) EVQLVESGGGLVQAGGSLRLSCAASGRAFSAYAMGWFRQAPGKEREFVAAISWSGGSTYYADSVRGRFTISRDNTKNTVYLQMNSLKPEDTAVYYCNADSLLSLLDGSRGGPGTDSGSWGQGTQVTVSSEPKSSDKTHTCPPCPAPEFEGGPSVFLFPPKPKDTLMISRTPEVTCVVVDVSHEDPEVKFNWYVDGVEVHNAKTKPREEQYNSTYRVVSVLTVLHQDWLNGKEYKCKVSNKALPASIEKTISKAKGQPREPQVYTLPPSRDELTKNQVSLTCLVKGFYPSDIAVEWESNGQPENNYKTTPPVLDSDGSFFLYSKLTVDKSRWQQGNVFSCSVMHEALHNHYTQKSLSLSPGK	Condition not met
4-E04-FC1-MMAE (4-E04-FC1 coupled to mc-vc-MMAE) (Fc fusion, mc-vc-MMAE coupled to cysteine thiols after TCEP reduction; the coupling did not complete and the proportion of coupling products was very low; positions not given) AVQLVESGGGLVQPGGSLSLSCAASEMISSTYIMGWYRRSPGKERELVAVISGDGVTHYGDFVKGRFAISRDNVKNAVYLKMNFLTPEDTAVYYCNAAGRRNHWGQGTQVTVSSEPKSSDKTHTCPPCPAPEFEGGPSVFLFPPKPKDTLMISRTPEVTCVVVDVSHEDPEVKFNWYVDGVEVHNAKTKPREEQYNSTYRVVSVLTVLHQDWLNGKEYKCKVSNKALPASIEKTISKAKGQPREPQVYTLPPSRDELTKNQVSLTCLVKGFYPSDIAVEWESNGQPENNYKTTPPVLDSDGSFFLYSKLTVDKSRWQQGNVFSCSVMHEALHNHYTQKSLSLSPGK	Condition met

Problem: Tell me whether Cell proliferation inhibition IC50, BxPC3 cells (MTS) is at least 5 ng/mL here: 4-C08-FC1-MMAE (4-C08-FC1 coupled to mc-vc-MMAE) (Fc fusion, mc-vc-MMAE coupled to cysteine thiols after TCEP reduction; DAR4 about 41.8% and DAR2 about 42.7% by HIC; positions not given) DVQLVESGGGLVQPGGSLRLSCAVSGFSLSSYDMNWYRQGPGKEREWVANIHSSGGYPDYADAVKGRFTISRDNAKNMVYLQMNSLKPEDTAVYYCNLPPSRRWYKDYWGQGTQVTVSSEPKSSDKTHTCPPCPAPEFEGGPSVFLFPPKPKDTLMISRTPEVTCVVVDVSHEDPEVKFNWYVDGVEVHNAKTKPREEQYNSTYRVVSVLTVLHQDWLNGKEYKCKVSNKALPASIEKTISKAKGQPREPQVYTLPPSRDELTKNQVSLTCLVKGFYPSDIAVEWESNGQPENNYKTTPPVLDSDGSFFLYSKLTVDKSRWQQGNVFSCSVMHEALHNHYTQKSLSLSPGK
Result: Condition not met
